Values from paper PMC4967042

target: RECQ1-C478A (human, UniProt P46063 1-649, C478A); test: MST
Sequence (P46063 whole entry C478A): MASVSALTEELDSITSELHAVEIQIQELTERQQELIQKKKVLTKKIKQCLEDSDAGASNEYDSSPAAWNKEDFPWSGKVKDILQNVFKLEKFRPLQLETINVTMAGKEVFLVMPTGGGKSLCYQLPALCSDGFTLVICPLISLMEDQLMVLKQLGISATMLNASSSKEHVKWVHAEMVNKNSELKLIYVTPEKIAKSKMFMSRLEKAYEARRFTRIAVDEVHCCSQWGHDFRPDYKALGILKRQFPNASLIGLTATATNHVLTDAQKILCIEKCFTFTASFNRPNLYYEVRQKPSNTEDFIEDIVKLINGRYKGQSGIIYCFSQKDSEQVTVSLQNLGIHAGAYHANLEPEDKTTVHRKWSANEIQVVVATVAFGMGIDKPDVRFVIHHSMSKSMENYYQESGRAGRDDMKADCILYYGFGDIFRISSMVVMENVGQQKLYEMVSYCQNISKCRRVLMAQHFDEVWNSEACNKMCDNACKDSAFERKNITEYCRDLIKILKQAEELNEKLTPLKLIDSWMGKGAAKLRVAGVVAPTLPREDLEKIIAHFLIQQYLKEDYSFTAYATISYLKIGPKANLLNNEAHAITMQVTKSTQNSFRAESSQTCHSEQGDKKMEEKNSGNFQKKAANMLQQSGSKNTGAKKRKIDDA

BINDER	Kd / nM
forked duplex T44/FLAP26 (dsDNA) DNA 1: GCACTGGCCGTCGTTTTACGGTCGTGACTGGGAAAACCCTGGCG DNA 2: TTTTTTTTTTTTTTTTTTTTTTCCAAGTAAAACGACGGCCAGTGC	602
